molecular target: T1, hMSLN-His-Avi (human, UniProt Q13421 296-598, single biotin on the Avi tag in the biotinylated form); assay: SPR, hMSLN-His-Avi immobilised ~100 RU, mAb2 injected
T1 construct: Monomeric; also called human MSLN-His-Avi; hMSLN-Avi-His
T1 sequence (Q13421 other isoform, or with tags, fused parts or gaps): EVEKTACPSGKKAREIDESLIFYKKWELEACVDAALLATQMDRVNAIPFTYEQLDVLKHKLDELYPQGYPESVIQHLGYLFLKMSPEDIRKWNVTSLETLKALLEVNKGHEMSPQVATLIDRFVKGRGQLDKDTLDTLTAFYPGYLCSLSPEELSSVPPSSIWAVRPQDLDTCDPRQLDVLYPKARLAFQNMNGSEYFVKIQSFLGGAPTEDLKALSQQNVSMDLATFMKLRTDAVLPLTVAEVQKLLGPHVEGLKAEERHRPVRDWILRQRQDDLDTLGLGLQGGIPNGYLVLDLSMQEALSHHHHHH
recorded_endpoint: Kd (nM)
Note: unit nM is implicit; provide only the numeric part.

Tell me the measured Kd of FS22-172-003-AA/FS28-256-026 (bispecific antibody, human IgG1, kappa, L234A L235A, V domains shown, IgG1 mAb^2 with LALA) VH: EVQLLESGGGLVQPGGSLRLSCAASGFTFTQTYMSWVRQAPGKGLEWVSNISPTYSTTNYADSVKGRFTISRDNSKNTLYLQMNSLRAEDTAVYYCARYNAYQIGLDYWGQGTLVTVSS VL: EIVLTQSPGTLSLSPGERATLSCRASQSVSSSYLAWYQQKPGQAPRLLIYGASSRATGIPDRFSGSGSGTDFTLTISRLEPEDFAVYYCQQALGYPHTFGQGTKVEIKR , please.
3.19

Again, but for FS22-172-003-AA/FS28-256-024 (bispecific antibody, human IgG1, kappa, L234A L235A, V domains shown, IgG1 mAb^2 with LALA) VH: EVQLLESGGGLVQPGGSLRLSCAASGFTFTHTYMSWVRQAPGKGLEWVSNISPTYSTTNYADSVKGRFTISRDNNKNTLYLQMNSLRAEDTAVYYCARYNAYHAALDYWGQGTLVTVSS VL: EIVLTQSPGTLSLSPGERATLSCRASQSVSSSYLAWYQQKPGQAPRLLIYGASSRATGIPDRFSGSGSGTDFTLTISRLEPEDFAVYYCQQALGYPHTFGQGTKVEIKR
4.74
